- Tested on: Toxoplasma gondii RH tachyzoites
- assayRemarks: % growth inhibition vs DMSO (48 h luciferase); higher = more inhibition
- measurementParameters: 10 µM
parameter: % growth inhibition (%)
Give a bare numeral; the unit % is implied.

Solved entries:
compound	parameter	readoutValue
FC(F)(F)c1cccc(Nc2nc(-c3ccccc3)nc3ncccc23)c1	% growth inhibition	51.1
COc1ccc(C2Sc3ccccc3N=C3C2=C(O)c2ccccc23)cc1 (stereo unspecified)	% growth inhibition	98.7
CCC(=O)Nc1nnc(Cc2ccc(OC)c(OC)c2)s1	% growth inhibition	56.6
COCCNC(=O)c1ccc(OC2CCN(Cc3ccc(F)c(F)c3)CC2)c(Cl)c1	% growth inhibition	97.4

# input Item CCOC(=O)c1cnc2ccc(OC)cc2c1NCc1ccccc1 has what recorded % growth inhibition?
# output 97.7

# input Item CCOc1ccc2nc(C)cc(Nc3ccc(Br)cc3)c2c1 has what recorded % growth inhibition?
# output 99.5

====

- Test system: Toxoplasma gondii RH tachyzoites
- assayRemarks: plaque count per well; higher = less inhibition; extreme values may be limits of the assay
- measurementParameters: 10 µM; 8-10 days
Rule: t for plaque count per well not less than 20, f for anything less.

For orientation, consider the following solved cases.
compound	qualitativeLabel
COc1ccc2nc(C)cc(Nc3cccc(O)c3)c2c1	f
COc1ccc(N2CCN(C(CNC(=O)CC(C)(C)C)c3ccc4c(c3)OCO4)CC2)cc1 (stereo unspecified)	t
CCOc1cc(CNC(C)C(O)c2ccccc2)cc(Cl)c1OCC (stereo unspecified)	f
Cc1ccc(-c2cc(C(=O)Nc3ccc(S(=O)(=O)N4CCCCC4)cc3)[nH]n2)c(O)c1	f
Cc1c(C)n(CC(O)CNC2CCCCC2C)c2ccccc12 (stereo unspecified)	t

Field: next compound
# input Given the entry CCCc1cc(O)c2c3c(c(=O)oc2c1)CN(C)CC3 , answer whether its plaque count per well meets or surpasses 20.
# output t

====

- Tested on: Toxoplasma gondii RH tachyzoites
- assayRemarks: % growth inhibition vs DMSO (48 h luciferase); higher = more inhibition
- measurementParameters: 10 µM
Reported % growth inhibition by item:
Give a bare numeral; the unit % is implied.

# input Item CCOc1cc2c(cc1OCC)C(c1cc(C)c(O)c(C)c1)NCC2 (stereo unspecified) has what recorded % growth inhibition?
# output 14.9

# input Item O=C(Nc1nc(-c2ccccn2)cs1)c1ccccc1Br has what recorded % growth inhibition?
# output 98.4

# input Item CN1CCN(c2ccc(Nc3c4ccccc4nc4ccccc34)cc2)CC1 has what recorded % growth inhibition?
# output 100

# input Item CC(=O)c1ccc(NC(=O)CSc2nc(-c3ccccc3Cl)ns2)cc1 has what recorded % growth inhibition?
# output 78.8

# input Item CCCCN(CCCC)S(=O)(=O)c1ccc(NC(=O)c2ccco2)cc1 has what recorded % growth inhibition?
# output 74.8

====

- Test system: Toxoplasma gondii RH tachyzoites
- assayRemarks: plaque count per well; higher = less inhibition; extreme values may be limits of the assay
- measurementParameters: 10 µM; 8-10 days
Reported plaque count per well by item:
Give your answer as a number; write no unit.

Solved entries:
molecule	plaque count per well
Cc1c(C)n(Cc2ccc(F)cc2)c2ccc(C(=O)NCc3ccco3)cc12	21
COc1ccc(C2C(C(=O)Nc3cccc(OC)c3)c3ccccc3C(=O)N2C2CCCCC2)cc1 (configuration not stated)	0
COc1ccc(CNC2CCN(c3ccc(NC(=O)c4cccc(Cl)c4)cc3)CC2)cc1OC	0
CCOC(=O)C1CCN(C(=O)CN2C(=O)c3ccccc3C2c2c[nH]c3ccccc23)CC1 (configuration not stated)	31
COc1ccc(CN2CCCC(C(=O)c3ccc(C(F)(F)F)cc3)C2)c(O)c1 (configuration not stated)	20

# input Item CC(C)c1ccc(CNCC(O)c2ccccc2)cc1 (configuration not stated) has what recorded plaque count per well?
# output 0

# input Item COc1ccccc1CNC(=O)C1c2ccccc2C(=O)N(CC(C)C)C1c1cccs1 (configuration not stated) has what recorded plaque count per well?
# output 24

# input Item Cc1ccc(-c2cc3nc4c(c(O)n3n2)CCCC4)cc1 has what recorded plaque count per well?
# output 0

====

- Tested on: Toxoplasma gondii RH tachyzoites
- assayRemarks: % growth inhibition vs DMSO (48 h luciferase); higher = more inhibition
- measurementParameters: 10 µM
parameter: % growth inhibition

Solved entries:
compound	readoutValue
CCCc1cc(O)c2c3c(c(=O)oc2c1)CN(C)CC3	< 0%
Clc1ccc2c(N3CCCC3)ccnc2c1	< 0%
CC1CCN(Cc2ccc(NC(=O)c3cc4ccc5cccnc5c4[nH]3)cc2)CC1	< 0%
COc1ccc(Nc2nc(N/N=C/c3ccc(O)cc3)nc(Nc3ccc([N+](=O)[O-])cc3)n2)cc1	100%

# input Observed % growth inhibition on Toxoplasma gondii RH tachyzoites for Nc1nc(Nc2cccc(F)c2)nc2ccccc12 , please.
# output 100%

# input Observed % growth inhibition on Toxoplasma gondii RH tachyzoites for OC(Cn1nnc2ccccc21)Cn1c2ccc(Br)cc2c2cc(Br)ccc21 (stereo unspecified) , please.
# output 22.8%

# input Observed % growth inhibition on Toxoplasma gondii RH tachyzoites for COc1ccc(OC)c(C2C3=C(CC(C)(C)CC3=O)N(c3ccc(Cl)c(Cl)c3)C3=C2C(=O)CC(C)(C)C3)c1 , please.
# output < 0%

# input Observed % growth inhibition on Toxoplasma gondii RH tachyzoites for O=c1nc(C=Cc2ccc(Cl)cc2)oc2ccccc12 , please.
# output 94.2%

# input Observed % growth inhibition on Toxoplasma gondii RH tachyzoites for COc1cc2c3cc1Oc1c(OC)c(OC)cc4c1C(Cc1ccc(O)c(c1)Oc1ccc(cc1)CC3N(C)CC2)N(C)CC4 (stereo unspecified) , please.
# output 51.7%

# input Observed % growth inhibition on Toxoplasma gondii RH tachyzoites for COc1ccc2nc(C)cc(Nc3ccccc3O)c2c1 , please.
# output 22.7%

# input Observed % growth inhibition on Toxoplasma gondii RH tachyzoites for CCOC(=O)C1CCN(C(=O)CN2C(=O)c3ccccc3C2c2c[nH]c3ccccc23)CC1 (stereo unspecified) , please.
# output < 0%

====

- testTarget: Toxoplasma gondii RH tachyzoites
- assayRemarks: EC50 growth inhibition (48 h luciferase)
parameter: EC50 growth inhibition (nM)
Give a bare numeral; the unit nM is implied.

Solved entries:
inputSmiles	readoutValue
Cc1ccc(S(=O)(=O)c2c(COC(=O)c3cccc(C)c3)c(-c3ccccc3)nn2C)cc1	2060
Cc1sc2ncnc(Sc3nc4ccccc4[nH]3)c2c1C	2950
CCOC(=O)c1cn(CC)c2cc(N(C)CCc3ccc(OC)c(OC)c3)c(F)cc2c1=O	910
COc1ccc(Nc2nc(N/N=C/c3ccc(O)cc3)nc(Nc3ccc([N+](=O)[O-])cc3)n2)cc1	2630

# input Observed EC50 growth inhibition on Toxoplasma gondii RH tachyzoites for c1ccc(CNc2nc(Nc3ccccc3)nc3ccccc23)cc1 , please.
# output 708

====

Reported plaque count per well by item:
- System: Toxoplasma gondii RH tachyzoites
- assayRemarks: plaque count per well; higher = less inhibition; extreme values may be limits of the assay
- measurementParameters: 10 µM; 8-10 days
Give your answer as a number; write no unit.

compound	testTarget	readoutValue
Clc1ccc2[nH]c3c(NCCCN4CCOCC4)ncnc3c2c1	Toxoplasma gondii RH tachyzoites	23

# input Observed plaque count per well on Toxoplasma gondii RH tachyzoites for Cc1cc(NC(=O)c2cccc(C(F)(F)F)c2)n(-c2nc(-c3ccc4c(c3)OCO4)cs2)n1 , please.
# output 26

# input Observed plaque count per well on Toxoplasma gondii RH tachyzoites for O=C(CCc1ccco1)NC1CCN(CC2(c3ccc(Cl)cc3)CCC2)CC1 , please.
# output 23

# input Observed plaque count per well on Toxoplasma gondii RH tachyzoites for COc1ccccc1CNC(=O)CCn1c(=O)[nH]c2ccsc2c1=O , please.
# output 22

# input Observed plaque count per well on Toxoplasma gondii RH tachyzoites for CCn1c(CN2CCN(Cc3ccccc3)CC2)nc2cc(NC(=O)c3cccs3)ccc21 , please.
# output 0

# input Observed plaque count per well on Toxoplasma gondii RH tachyzoites for O=C(O)C1Cc2c([nH]c3ccccc23)C(c2ccc(Cl)cc2Cl)N1 (configuration not stated) , please.
# output 32

# input Observed plaque count per well on Toxoplasma gondii RH tachyzoites for CN(C)c1ccc(N=Cc2ccc(N3CCOCC3)cc2)cc1 , please.
# output 22

====

- Test system: Toxoplasma gondii RH tachyzoites
- assayRemarks: % growth inhibition vs DMSO (48 h luciferase); higher = more inhibition
- measurementParameters: 10 µM
parameter: % growth inhibition (%)
Give a bare numeral; the unit % is implied.

molecule	testTarget	parameter	readoutValue
Cc1cc(Nc2ccc(C)c(Cl)c2)n2nc(C(F)(F)F)nc2n1	Toxoplasma gondii RH tachyzoites	% growth inhibition	23.8
CCOC(=O)C1=CN(C)C=C(C(=O)OCC)C1c1cc(Br)c(OCC)c(OC)c1	Toxoplasma gondii RH tachyzoites	% growth inhibition	95.5
COc1cccc(O)c1CN1CCC2(CCCN(Cc3ccc(F)cc3)C2)C1 (stereo unspecified)	Toxoplasma gondii RH tachyzoites	% growth inhibition	79.6
Oc1ccccc1CNCC12CC3CC(CC(C3)C1)C2	Toxoplasma gondii RH tachyzoites	% growth inhibition	52.8
Cc1cc(C)cc(Nc2cc(C)nc3nc(C(F)(F)F)nn23)c1	Toxoplasma gondii RH tachyzoites	% growth inhibition	53.7

# input Item Cc1ccccc1OCCSc1nc2ccc(NC(=O)c3cccs3)cc2s1 has what recorded % growth inhibition?
# output 99.8

# input Item FC(F)(F)c1cccc(CNC2CCN(CCc3ccccc3)CC2)c1 has what recorded % growth inhibition?
# output 45.5

# input Item CCn1nc(-c2ccc(C(=O)OC)cc2)nc2c(=O)n(C)c(=O)nc1-2 has what recorded % growth inhibition?
# output 100

// data source = the supplement of paper PMC5770543
